# test-target: Estrogen receptor (Mus musculus) (UniProt O08537+P19785)
# Sequence (O08537 whole entry, looked up): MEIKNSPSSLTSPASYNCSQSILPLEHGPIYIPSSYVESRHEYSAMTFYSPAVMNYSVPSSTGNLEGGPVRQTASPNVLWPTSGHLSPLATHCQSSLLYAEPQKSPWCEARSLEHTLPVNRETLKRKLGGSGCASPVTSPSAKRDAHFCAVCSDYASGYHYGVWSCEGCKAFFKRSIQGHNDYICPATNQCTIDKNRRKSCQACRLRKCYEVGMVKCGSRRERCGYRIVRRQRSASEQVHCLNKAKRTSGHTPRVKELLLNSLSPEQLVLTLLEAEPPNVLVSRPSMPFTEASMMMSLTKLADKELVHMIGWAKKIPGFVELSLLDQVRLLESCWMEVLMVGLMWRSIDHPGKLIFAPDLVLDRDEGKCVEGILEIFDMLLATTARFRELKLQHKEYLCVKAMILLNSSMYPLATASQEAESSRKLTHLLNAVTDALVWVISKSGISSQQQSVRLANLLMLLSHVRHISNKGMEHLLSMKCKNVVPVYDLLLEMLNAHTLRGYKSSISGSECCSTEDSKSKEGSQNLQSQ
# Sequence (P19785 whole entry, looked up): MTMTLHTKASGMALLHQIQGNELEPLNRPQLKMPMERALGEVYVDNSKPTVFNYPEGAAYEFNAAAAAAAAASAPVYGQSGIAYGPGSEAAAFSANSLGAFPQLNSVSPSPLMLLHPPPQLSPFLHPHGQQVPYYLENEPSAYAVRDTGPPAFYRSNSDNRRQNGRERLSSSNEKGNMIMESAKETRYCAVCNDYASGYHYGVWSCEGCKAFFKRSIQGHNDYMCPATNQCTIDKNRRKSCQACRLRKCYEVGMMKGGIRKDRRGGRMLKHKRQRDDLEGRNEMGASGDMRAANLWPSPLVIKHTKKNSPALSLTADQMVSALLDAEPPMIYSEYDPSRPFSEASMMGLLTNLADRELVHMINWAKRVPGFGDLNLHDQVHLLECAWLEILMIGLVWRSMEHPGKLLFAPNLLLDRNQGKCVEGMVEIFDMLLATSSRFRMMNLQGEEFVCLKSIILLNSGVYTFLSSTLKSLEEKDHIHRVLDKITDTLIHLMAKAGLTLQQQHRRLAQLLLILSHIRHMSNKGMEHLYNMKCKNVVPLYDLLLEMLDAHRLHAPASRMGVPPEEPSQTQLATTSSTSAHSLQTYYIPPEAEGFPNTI
# assay-explanation: Percentage inhibition of uterotrophic effects of estradiol in vivo following 100 ug i.p.
# Assay type: functional, organism-based
# stated-conditions: in the assay text read “s.c.” for “i.p.”
# binning rule on inhibition: group 1 (below 40%), group 2 (40% to below 50%), group 3 (50% or more)

[Q] Band assignment needed for `O=C(/C(=C/c1ccc(O)cc1)c1ccc(O)cc1)c1ccc(O)cc1` please.
[A] group 3

---
[Q] Band assignment needed for `COc1ccc(/C(=C/c2ccccc2)C(=O)c2ccccc2)cc1` please.
[A] group 3

[Q] Now give it for `O=C(/C(=C\c1ccc(O)cc1)c1ccccc1)c1ccc(O)cc1` too.
[A] group 1

[Q] Now give it for `CC(=O)Oc1ccc(/C=C(/C(=O)c2ccccc2)c2ccccc2)cc1` too.
[A] group 2

[Q] Now give it for `O=C(/C(=C/c1ccc(O)cc1)c1ccccc1)c1ccccc1` too.
[A] group 3

[Q] Now give it for `O=C(/C(=C\c1ccc(O)cc1)c1ccc(O)cc1)c1ccccc1` too.
[A] group 2

[Q] Now give it for `O=C(/C(=C/c1ccccc1)c1ccc(O)cc1)c1ccc(O)cc1` too.
[A] group 1

====

# test-target: Estrogen receptor (Mus musculus) (UniProt O08537+P19785)
# assay-explanation: In vivo anti-uterotrophic activity in mice following 1 ug estradiol i.p.
# Assay type: functional, organism-based
# stated-conditions: in the assay text read “s.c.” for “i.p.”
Each record here notes measured Uterine weight.
State just the number; it will be interpreted in mg.

[Q] I have this compound here, `O=C(/C(=C\c1ccccc1)c1ccccc1)c1ccccc1` , and I need its recorded Uterine weight.
[A] 15.3

[Q] Now give it for `CC(=O)Oc1ccc(/C(=C\c2ccccc2)C(=O)c2ccccc2)cc1` too.
[A] 21.5

[Q] Now give it for `COc1ccc(/C(=C/c2ccccc2)C(=O)c2ccccc2)cc1` too.
[A] 15.3

---
[Q] I have this compound here, `O=C(/C(=C/c1ccccc1)c1ccccc1)c1ccc(O)cc1` , and I need its recorded Uterine weight.
[A] 18.5

[Q] Now give it for `COc1ccc(/C=C(/C(=O)c2ccccc2)c2ccccc2)cc1` too.
[A] 17.3

[Q] Now give it for `CC(=O)Oc1ccc(/C(=C/c2ccccc2)C(=O)c2ccccc2)cc1` too.
[A] 17.8

[Q] Now give it for `O=C(/C(=C\c1ccc(O)cc1)c1ccccc1)c1ccc(O)cc1` too.
[A] 22.3

[Q] Now give it for `COc1ccc(/C(=C\c2ccccc2)C(=O)c2ccccc2)cc1` too.
[A] 18.5

[Q] Now give it for `COc1ccc(C(=O)/C(=C\c2ccccc2)c2ccccc2)cc1` too.
[A] 16

[Q] Now give it for `O=C(/C(=C\c1ccc(O)cc1)c1ccc(O)cc1)c1ccccc1` too.
[A] 16.5

[Q] Now give it for `O=C(/C(=C/c1ccccc1)c1ccc(O)cc1)c1ccc(O)cc1` too.
[A] 21.9

====

Each record here notes measured RBA.
# Test system: Estrogen receptor (Mus musculus)
# assay-explanation: Relative binding affinity calculated as the ratio of molar concentration of E2 and the triarylpropenones (TAP's) required to decrease [3H]E2 binding by 50%.
// return just the number, without any unit appended

[Q] I have this compound here, `CC(=O)Oc1ccc(/C=C(/C(=O)c2ccc(OC(C)=O)cc2)c2ccccc2)cc1` , and I need its recorded RBA.
[A] 1.02

The record that follows has no RBA shown yet.
[Q] I have this compound here, `O=C(/C(=C/c1ccc(O)cc1)c1ccc(O)cc1)c1ccccc1` , and I need its recorded RBA.
[A] 0.57
